Parameter 'readout' = IC50; parameter 'system' = PDGFR-β (Homo sapiens).
Sequence (P09619 33-1106, species assumed): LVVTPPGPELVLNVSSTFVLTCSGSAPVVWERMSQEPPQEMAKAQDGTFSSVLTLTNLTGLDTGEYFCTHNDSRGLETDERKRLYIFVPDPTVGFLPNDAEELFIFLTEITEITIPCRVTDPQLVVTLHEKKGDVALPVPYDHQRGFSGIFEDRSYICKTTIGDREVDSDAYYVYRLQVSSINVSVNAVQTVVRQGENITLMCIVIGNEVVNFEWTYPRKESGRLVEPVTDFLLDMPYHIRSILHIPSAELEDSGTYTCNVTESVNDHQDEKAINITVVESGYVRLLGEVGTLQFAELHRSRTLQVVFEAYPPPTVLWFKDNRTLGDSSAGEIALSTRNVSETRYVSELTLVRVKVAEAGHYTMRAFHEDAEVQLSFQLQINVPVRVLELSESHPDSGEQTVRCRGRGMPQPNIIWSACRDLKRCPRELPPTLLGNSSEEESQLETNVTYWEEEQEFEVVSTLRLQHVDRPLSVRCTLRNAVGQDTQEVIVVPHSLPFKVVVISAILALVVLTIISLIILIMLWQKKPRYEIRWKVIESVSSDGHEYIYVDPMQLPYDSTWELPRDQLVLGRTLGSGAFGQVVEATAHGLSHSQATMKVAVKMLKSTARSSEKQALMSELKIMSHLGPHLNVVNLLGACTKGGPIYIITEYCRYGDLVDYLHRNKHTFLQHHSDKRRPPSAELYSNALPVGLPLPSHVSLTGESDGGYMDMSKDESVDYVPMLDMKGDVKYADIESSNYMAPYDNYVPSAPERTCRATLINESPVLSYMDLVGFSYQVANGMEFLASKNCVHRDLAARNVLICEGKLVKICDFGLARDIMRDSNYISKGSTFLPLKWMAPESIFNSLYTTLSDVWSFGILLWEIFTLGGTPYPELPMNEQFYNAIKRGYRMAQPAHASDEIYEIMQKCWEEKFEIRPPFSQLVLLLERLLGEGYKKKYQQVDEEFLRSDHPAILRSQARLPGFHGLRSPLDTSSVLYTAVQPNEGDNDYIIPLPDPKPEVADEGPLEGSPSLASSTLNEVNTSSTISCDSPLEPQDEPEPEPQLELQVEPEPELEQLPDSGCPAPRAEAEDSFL

CCn1cc(-c2cc(Oc3ccc4nc(N[C@@H]5CCCC[C@H]5O)sc4c3)ccn2)cn1: 1700 nM
CCCNC(=O)c1cc(Oc2ccc3nc(N[C@@H]4CCCC[C@H]4O)sc3c2)ccn1: 7700 nM
CCNC(=O)c1cc(Oc2ccc3nc(N[C@@H]4CCCC[C@H]4O)sc3c2)ccn1: 13900 nM
Cn1cc(-c2cc(Oc3ccc4nc(N[C@H]5CCCC[C@@H]5O)sc4c3)ccn2)cn1: 20 nM

Consider the record given below.
Notebook entry, PDGFR-β (Homo sapiens) assay: IC50 of `Cn1cc(-c2cc(Oc3ccc4nc(N[C@@H]5CCCC[C@H]5O)sc4c3)ccn2)cn1` = ?
740 nM
